Target: IDH1 wt/IDH1 R132H heterodimer (Homo sapiens (Human), UniProt O75874, R132H)
Sequence (O75874 whole entry R132H): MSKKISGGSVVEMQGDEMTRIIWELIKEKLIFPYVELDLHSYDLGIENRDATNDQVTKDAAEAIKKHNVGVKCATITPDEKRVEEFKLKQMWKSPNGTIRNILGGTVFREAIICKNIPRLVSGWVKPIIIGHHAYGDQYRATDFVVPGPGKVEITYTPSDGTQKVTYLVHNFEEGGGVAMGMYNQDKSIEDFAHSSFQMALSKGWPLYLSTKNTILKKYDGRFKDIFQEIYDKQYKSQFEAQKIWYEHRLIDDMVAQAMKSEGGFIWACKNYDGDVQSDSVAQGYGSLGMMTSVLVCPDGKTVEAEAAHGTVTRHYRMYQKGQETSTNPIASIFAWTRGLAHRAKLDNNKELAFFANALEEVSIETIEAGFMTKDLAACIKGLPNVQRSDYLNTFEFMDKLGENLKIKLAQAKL
Sequence (O75874 whole entry, stated change not applied): as the sequence (O75874 whole entry R132H) above, with H132R counted along it
Assay: In vitro assay for IDH1m R132H inhibitors, IDH1 wt/IDH1 R132H heterodimer, NADPH depletion (diaphorase/resazurin)
Type: biochemical
Conditions: IDH1 wt/IDH1 R132H heterodimer, 300 μM NADP (saturated); read-out: IDH1 wt/R132H NADPH/NADP IC50 saturated
pIC50: −log10 of the molar value.
attribute_measured: pIC50

Previously resolved entries follow.
compound	target_system	meas_value
N#CC1(c2cc(Nc3nc(N[C@@H]4CCC(F)(F)C4)nc(-c4cncc(C(F)(F)F)n4)n3)ccn2)CC1 [Compound 378]	IDH1 wt/IDH1 R132H heterodimer (Homo sapiens (Human), UniProt O75874, R132H)	> 7.30
C[C@@H](Nc1nc(Nc2ccnc(-c3ccc(C#N)cc3)c2)nc(-c2cccc(C(F)(F)F)n2)n1)C(F)(F)F [Compound 383]	IDH1 wt/IDH1 R132H heterodimer (Homo sapiens (Human), UniProt O75874, R132H)	6.00 to 7.00
CC(F)(F)c1cc(Nc2nc(NC3CCC(F)(F)CC3)nc(-c3cccc(C(F)(F)F)n3)n2)ccn1 [Compound 361]	IDH1 wt/IDH1 R132H heterodimer (Homo sapiens (Human), UniProt O75874, R132H)	7.00 to 7.30
N#CC1(c2cc(Nc3nc(N[C@H]4CCC(F)(F)C4)nc(-c4nccc(C(F)(F)F)n4)n3)ccn2)CC1 [Compound 376]	IDH1 wt/IDH1 R132H heterodimer (Homo sapiens (Human), UniProt O75874, R132H)	< 6.00
FC(F)c1csc(-c2nc(NC3CCC(F)(F)C3)nc(NC3CCC(F)(F)C3)n2)n1 (centres unmarked) [Compound 402]	IDH1 wt/IDH1 R132H heterodimer (Homo sapiens (Human), UniProt O75874, R132H)	7.00 to 7.30
FC1(F)CC[C@@H](Nc2nc(N[C@@H]3CCC(F)(F)C3)nc(-c3cncc(C(F)(F)F)n3)n2)C1 [Compound 410]	IDH1 wt/IDH1 R132H heterodimer (Homo sapiens (Human), UniProt O75874, R132H)	> 7.30
N#CC1(c2cc(Nc3nc(NCC4CC4(F)F)nc(-c4cccc(C(F)(F)F)n4)n3)ccn2)CC1 (centres unmarked) [Compound 362]	IDH1 wt/IDH1 R132H heterodimer (Homo sapiens (Human), UniProt O75874, R132H)	7.00 to 7.30
FC1(F)CC[C@@H](Nc2nc(Nc3ccnc(C(F)(F)F)c3)nc(-c3ccnc(C(F)(F)F)n3)n2)C1 [Compound 340]	IDH1 wt/IDH1 R132H heterodimer (Homo sapiens (Human), UniProt O75874, R132H)	6.00 to 7.00
FC(F)c1cncc(-c2nc(NC3CC(F)(F)C3)nc(NC3CC(F)(F)C3)n2)n1 [Compound 409]	IDH1 wt/IDH1 R132H heterodimer (Homo sapiens (Human), UniProt O75874, R132H)	> 7.30
CC(C)(O)CNc1nc(Nc2cc(F)cc(C#N)c2)nc(-c2cccc(C(C)(F)F)n2)n1 [Compound 398]	IDH1 wt/IDH1 R132H heterodimer (Homo sapiens (Human), UniProt O75874, R132H)	6.00 to 7.00

For reference, reported pIC50 for FC1(F)CC[C@@H](Nc2nc(N[C@H]3CCC(F)(F)C3)nc(-c3cncc(C(F)(F)F)n3)n2)C1 [Compound 399] stands at > 7.30

For reference, reported pIC50 for FC(F)(F)c1cccc(-c2nc(NCC3CC3(F)F)nc(NCC3CC3(F)F)n2)n1 (centres unmarked) [Compound 354] stands at 7.00 to 7.30

For reference, reported pIC50 for FC(F)c1cncc(-c2nc(NC3CCC(F)(F)C3)nc(NC3CCC(F)(F)C3)n2)n1 (centres unmarked) [Compound 408] stands at > 7.30
